Data origin: patent US12544391B2

Give IC50 for every item shown.
Target: CD73 (Homo sapiens, UniProt P21589)
Sequence (P21589 27-549): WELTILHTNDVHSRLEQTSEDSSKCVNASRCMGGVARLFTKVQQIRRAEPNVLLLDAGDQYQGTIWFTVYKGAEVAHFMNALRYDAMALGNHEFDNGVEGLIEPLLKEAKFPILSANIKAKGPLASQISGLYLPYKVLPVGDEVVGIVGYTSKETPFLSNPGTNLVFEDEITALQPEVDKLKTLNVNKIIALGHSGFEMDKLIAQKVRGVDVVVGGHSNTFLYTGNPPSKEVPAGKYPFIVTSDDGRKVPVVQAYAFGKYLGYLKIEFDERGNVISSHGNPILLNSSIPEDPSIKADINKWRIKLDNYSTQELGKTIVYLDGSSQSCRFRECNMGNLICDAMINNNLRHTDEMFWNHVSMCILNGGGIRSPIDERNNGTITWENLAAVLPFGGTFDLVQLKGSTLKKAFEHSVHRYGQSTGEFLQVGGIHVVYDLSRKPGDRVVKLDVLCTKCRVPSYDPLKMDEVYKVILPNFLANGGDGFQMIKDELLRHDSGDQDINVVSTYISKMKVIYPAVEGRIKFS

COCC(C)(OC[C@H]1O[C@@H](c2ccc3c(NC4CCCC4)nc(Cl)nn23)[C@H](O)[C@@H]1O)P(=O)(O)O (stereo partly drawn) has a reported IC50 of ≤ 0.5 nM

COC[C@](COCc1nn[nH]n1)(OC[C@H]1O[C@@H](c2ccc3c(NC4CCCC4)nc(Cl)nn23)[C@H](O)[C@@H]1O)P(=O)(O)O (single isomer, unassigned) has a reported IC50 of ≤ 0.5 nM

O=P(O)(O)[C@](CO)(COCc1nn[nH]n1)OC[C@H]1O[C@@H](c2ccc3c(NCC4CCC4)nc(Cl)nn23)[C@H](O)[C@@H]1O has a reported IC50 of 1 to 100 nM

COCC(OC[C@H]1O[C@@H](c2ccc3c(NC4CCCC4)nc(Cl)nn23)[C@H](O)[C@@H]1O)P(=O)(O)O (stereo partly drawn) has a reported IC50 of 0.5 to 1 nM

COC[C@](COCC(=O)O)(OC[C@H]1O[C@@H](c2ccc3c(NC4CCCC4)nc(Cl)nn23)[C@H](O)[C@@H]1O)P(=O)(O)O has a reported IC50 of ≤ 0.5 nM

O=P(O)(O)C(CO)(CO)OC[C@H]1O[C@@H](c2ccc3c(NC4CCCC4)nc(Cl)nn23)[C@H](O)[C@@H]1O has a reported IC50 of 0.5 to 1 nM
